test system: PD-L1 gene expression; test: PD-L1 gene expression by RT-qPCR in MCF-7; type: cell-based, human; settings: MCF-7, 100 µM, 48 h, control = 100
ASSAY_ENDPOINT: % PD-L1 gene expression (%)
Express it in %; write the number only.

Solved entries (count: 3):
COMPOUND | VALUE_UNITS | % PD-L1 gene expression
Cc1c(COc2ccc(CN3CCCCC3C(=O)O)cc2Br)cccc1-c1ccccc1 (stereo not shown) [BMS-8, reference compound] | % | 31
COc1ccc(C(OCCc2ccc(CCn3cc(-c4cccc(Br)c4)nn3)cc2)(c2ccccc2)c2ccc(OC)cc2)cc1 [Compound 5] | % | 21
COc1ccc(C(OCCc2ccc(CCn3cc(-c4ccc(Br)cc4)nn3)cc2)(c2ccccc2)c2ccc(OC)cc2)cc1 [Compound 3] | % | 33

IN: // % PD-L1 gene expression lookup, key: COc1ccc(C(OCCc2ccc(CCn3cc(-c4ccccc4Br)nn3)cc2)(c2ccccc2)c2ccc(OC)cc2)cc1 [Compound 7]
OUT: 36
